In what follows, each item is paired with its log10 of Ki for Prothrombin (Homo sapiens).
result_type: log10 of Ki (log10 of the value in nM)

* N=C(N)c1cccc(N2CCCCN(C3CCN(Cc4cccs4)CC3)C2=O)c1 | 3.15
* N=C(N)c1cccc(N2CCCCN(C3CCN(S(=O)(=O)c4ccccc4N)CC3)C2=O)c1 | 3.38
* N=C(N)c1cccc(N2CCCCN(C3CCN(Cc4ccncc4)CC3)C2=O)c1 | 3.83
* N=C(N)c1cccc(N2CCCCN(C3CCN(Cc4ccccn4)CC3)C2=O)c1 | 3.41
* N=C(N)c1cccc(N2CCCCN(C3CCN(S(=O)(=O)Cc4ccccc4)CC3)C2=O)c1.O=C(O)C(F)(F)F | 2.70
